# targetUnderTest: CypF (Homo sapiens (Human))
# Sequence (P30405 30-207): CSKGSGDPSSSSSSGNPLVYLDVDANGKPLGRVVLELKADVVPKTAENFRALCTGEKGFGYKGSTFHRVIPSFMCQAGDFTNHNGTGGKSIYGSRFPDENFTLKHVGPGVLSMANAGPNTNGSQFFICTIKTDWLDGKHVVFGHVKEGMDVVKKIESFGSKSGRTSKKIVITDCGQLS
# assayRemarks: Inhibitor binding to cyclophilin proteins by SPR, CypF
# testSettings: 1:1 binding model
Starred links: 1 amine or outer side, 2 acyl side, 3 side chain; linkers in the order of their positions; H or OH if unused. Non-standard residues stand in square brackets, D forms with d. Residues, ends and D or L forms follow the SMILES beside them. X10 = C[C@H](CCCOC(=O)NC1CCN(C)CC1)[C@@H](C(=O)[*:2])N(C)[*:1]; X62 = COCCN1CCN(CCC[C@@H](C)[C@@H](C(=O)[*:2])N(C)[*:1])CC1; X22 = C[C@H](CN1CCN(C2CCC2)CC1)[C@@H](C(=O)[*:2])N(C)[*:1]; X43 = COCCN(C)C[C@@H](C)[C@@H](C(=O)[*:2])N(C)[*:1]; MeBmt = C/C=C/C[C@@H](C)[C@@H](O)[C@H](NC)C(=O)O; X13 = C[C@H](CC#N)[C@@H](C(=O)[*:2])N(C)[*:1]; NMeL = CN[C@@H](CC(C)C)C(=O)O; NMeV = CN[C@H](C(=O)O)C(C)C; dNMeA = CN[C@H](C)C(=O)O; Abu = CC[C@H](N)C(=O)O
Give CypF Kd for every item shown.
Numbers only here, please. The scale is nM.

The compound identified as C/C=C/C[C@@H](C)[C@@H](O)[C@H]1C(=O)N[C@@H](CC)C(=O)N(C)[C@H](C)C(=O)N(C)[C@@H]([C@H](C)CCCN2CCN(CCOC)CC2)C(=O)N[C@@H](C(C)C)C(=O)N(C)[C@@H](CC(C)C)C(=O)N[C@@H](C)C(=O)N[C@H](C)C(=O)N(C)[C@@H](CC(C)C)C(=O)N(C)[C@@H](CC(C)C)C(=O)N(C)[C@@H](C(C)C)C(=O)N1C [Compound 2.19.6] (cyclo(A[dA][NMeL][NMeL][NMeV][MeBmt][Abu][dNMeA][X62]V[NMeL])) registered its CypF Kd at 0.5

// CypF Kd value for C/C=C/C[C@@H](C)[C@@H](O)[C@H]1C(=O)N[C@@H](CC)C(=O)N(C)[C@H](C)C(=O)N(C)[C@@H]([C@H](C)CCCOC(=O)NC2CCN(C)CC2)C(=O)N[C@@H](C(C)C)C(=O)N(C)[C@@H](CC(C)C)C(=O)N[C@@H](C)C(=O)N[C@H](C)C(=O)N(C)[C@@H](CC(C)C)C(=O)N(C)[C@@H](CC(C)C)C(=O)N(C)[C@@H](C(C)C)C(=O)N1C [Compound 2.19.8] (cyclo(A[dA][NMeL][NMeL][NMeV][MeBmt][Abu][dNMeA][X10]V[NMeL])) : 0.4

The measured CypF Kd associated with C/C=C/C[C@@H](C)[C@@H](O)[C@H]1C(=O)N[C@@H](CC)C(=O)N(C)[C@H](C)C(=O)N(C)[C@@H]([C@H](C)CC#N)C(=O)N[C@@H](C(C)C)C(=O)N(C)[C@@H](CC(C)C)C(=O)N[C@@H](C)C(=O)N[C@H](C)C(=O)N(C)[C@@H](CC(C)C)C(=O)N(C)[C@@H](CC(C)C)C(=O)N(C)[C@@H](C(C)C)C(=O)N1C [Compound 2.10] (cyclo(A[dA][NMeL][NMeL][NMeV][MeBmt][Abu][dNMeA][X13]V[NMeL])) reads 0.5

The compound identified as C/C=C/C[C@@H](C)[C@@H](O)[C@H]1C(=O)N[C@@H](CC)C(=O)N(C)[C@H](C)C(=O)N(C)[C@@H]([C@H](C)CN(C)CCOC)C(=O)N[C@@H](C(C)C)C(=O)N(C)[C@@H](CC(C)C)C(=O)N[C@@H](C)C(=O)N[C@H](C)C(=O)N(C)[C@@H](CC(C)C)C(=O)N(C)[C@@H](CC(C)C)C(=O)N(C)[C@@H](C(C)C)C(=O)N1C [Compound 2.5.22] (cyclo(A[dA][NMeL][NMeL][NMeV][MeBmt][Abu][dNMeA][X43]V[NMeL])) registered its CypF Kd at 0.9

Lab note: C/C=C/C[C@@H](C)[C@@H](O)[C@H]1C(=O)N[C@@H](CC)C(=O)N(C)[C@H](C)C(=O)N(C)[C@@H]([C@H](C)CN2CCN(C3CCC3)CC2)C(=O)N[C@@H](C(C)C)C(=O)N(C)[C@@H](CC(C)C)C(=O)N[C@@H](C)C(=O)N[C@H](C)C(=O)N(C)[C@@H](CC(C)C)C(=O)N(C)[C@@H](CC(C)C)C(=O)N(C)[C@@H](C(C)C)C(=O)N1C [Compound 2.5.14] (cyclo(A[dA][NMeL][NMeL][NMeV][MeBmt][Abu][dNMeA][X22]V[NMeL])) gave CypF Kd of 0.5

----------
# targetUnderTest: cyclophilin B (CypB) (Homo sapiens (Human))
# Sequence (P23284 34-216): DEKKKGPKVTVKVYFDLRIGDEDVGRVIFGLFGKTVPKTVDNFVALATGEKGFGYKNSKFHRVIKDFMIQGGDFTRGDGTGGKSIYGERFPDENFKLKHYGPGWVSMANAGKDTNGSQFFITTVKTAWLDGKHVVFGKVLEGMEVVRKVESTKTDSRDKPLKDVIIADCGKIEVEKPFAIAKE
# assayRemarks: Inhibitor binding to cyclophilin proteins by SPR, CypB
# Set-up: unit not given here
# testSettings: 1:1 binding model
Starred links: 1 amine or outer side, 2 acyl side, 3 side chain; linkers in the order of their positions; H or OH if unused. Non-standard residues stand in square brackets, D forms with d. Residues, ends and D or L forms follow the SMILES beside them. X22 = C[C@H](CN1CCN(C2CCC2)CC1)[C@@H](C(=O)[*:2])N(C)[*:1]; X53 = C[C@H](CN(C)Cc1cccnc1)[C@@H](C(=O)[*:2])N(C)[*:1]; X23 = COC1CN(C[C@@H](C)[C@@H](C(=O)[*:2])N(C)[*:1])C1; X9 = C[C@@H](CN1CCOCC1)[C@@H](C(=O)[*:2])N(C)[*:1]; MeBmt = C/C=C/C[C@@H](C)[C@@H](O)[C@H](NC)C(=O)O; NMeL = CN[C@@H](CC(C)C)C(=O)O; NMeV = CN[C@H](C(=O)O)C(C)C; dNMeA = CN[C@H](C)C(=O)O; Abu = CC[C@H](N)C(=O)O
Assignment: determine reported CypB Kd for the given molecules.

The molecule listed as C/C=C/C[C@@H](C)[C@@H](O)[C@H]1C(=O)N[C@@H](CC)C(=O)N(C)[C@H](C)C(=O)N(C)[C@@H]([C@H](C)CN(C)Cc2cccnc2)C(=O)N[C@@H](C(C)C)C(=O)N(C)[C@@H](CC(C)C)C(=O)N[C@@H](C)C(=O)N[C@H](C)C(=O)N(C)[C@@H](CC(C)C)C(=O)N(C)[C@@H](CC(C)C)C(=O)N(C)[C@@H](C(C)C)C(=O)N1C [Compound 2.5.25] (cyclo(A[dA][NMeL][NMeL][NMeV][MeBmt][Abu][dNMeA][X53]V[NMeL])) shows CypB Kd equal to 1.0

Form field CypB Kd, entry C/C=C/C[C@@H](C)[C@@H](O)[C@H]1C(=O)N[C@@H](CC)C(=O)N(C)[C@H](C)C(=O)N(C)[C@@H]([C@H](C)CN2CC(OC)C2)C(=O)N[C@@H](C(C)C)C(=O)N(C)[C@@H](CC(C)C)C(=O)N[C@@H](C)C(=O)N[C@H](C)C(=O)N(C)[C@@H](CC(C)C)C(=O)N(C)[C@@H](CC(C)C)C(=O)N(C)[C@@H](C(C)C)C(=O)N1C [Compound 2.5.17] (cyclo(A[dA][NMeL][NMeL][NMeV][MeBmt][Abu][dNMeA][X23]V[NMeL])) : 0.9

Lab book: CypB Kd of C/C=C/C[C@@H](C)[C@@H](O)[C@H]1C(=O)N[C@@H](CC)C(=O)N(C)[C@H](CCCNC)C(=O)N(C)[C@@H]([C@H](C)COC)C(=O)N[C@@H](C(C)C)C(=O)N(C)[C@@H](CC(C)C)C(=O)N[C@@H](C)C(=O)N[C@H](C)C(=O)N(C)[C@@H](CC(C)C)C(=O)N(C)[C@@H](CC(C)C)C(=O)N(C)[C@@H](C(C)C)C(=O)N1C (stereo in doubt) noted as 3.0

Per the records, this molecule ( C/C=C/C[C@@H](C)[C@@H](O)[C@H]1C(=O)N[C@@H](CC)C(=O)N(C)[C@H](C)C(=O)N(C)[C@@H]([C@@H](C)CN2CCOCC2)C(=O)N[C@@H](C(C)C)C(=O)N(C)[C@@H](CC(C)C)C(=O)N[C@@H](C)C(=O)N[C@H](C)C(=O)N(C)[C@@H](CC(C)C)C(=O)N(C)[C@@H](CC(C)C)C(=O)N(C)[C@@H](C(C)C)C(=O)N1C [Compound 2.17.1] (cyclo(A[dA][NMeL][NMeL][NMeV][MeBmt][Abu][dNMeA][X9]V[NMeL])) ) has CypB Kd equal to 0.4

Sure, the documented CypB Kd for C/C=C/C[C@@H](C)[C@@H](O)[C@H]1C(=O)N[C@@H](CC)C(=O)N(C)[C@H](C)C(=O)N(C)[C@@H]([C@H](C)CN2CCN(C3CCC3)CC2)C(=O)N[C@@H](C(C)C)C(=O)N(C)[C@@H](CC(C)C)C(=O)N[C@@H](C)C(=O)N[C@H](C)C(=O)N(C)[C@@H](CC(C)C)C(=O)N(C)[C@@H](CC(C)C)C(=O)N(C)[C@@H](C(C)C)C(=O)N1C [Compound 2.5.14] (cyclo(A[dA][NMeL][NMeL][NMeV][MeBmt][Abu][dNMeA][X22]V[NMeL])) is 0.7
